Every entry's value here was drawn from patent US9475815B2.

Molecular target: human mTOR (Homo sapiens (Human))
Sequence (P42345 1360-2549): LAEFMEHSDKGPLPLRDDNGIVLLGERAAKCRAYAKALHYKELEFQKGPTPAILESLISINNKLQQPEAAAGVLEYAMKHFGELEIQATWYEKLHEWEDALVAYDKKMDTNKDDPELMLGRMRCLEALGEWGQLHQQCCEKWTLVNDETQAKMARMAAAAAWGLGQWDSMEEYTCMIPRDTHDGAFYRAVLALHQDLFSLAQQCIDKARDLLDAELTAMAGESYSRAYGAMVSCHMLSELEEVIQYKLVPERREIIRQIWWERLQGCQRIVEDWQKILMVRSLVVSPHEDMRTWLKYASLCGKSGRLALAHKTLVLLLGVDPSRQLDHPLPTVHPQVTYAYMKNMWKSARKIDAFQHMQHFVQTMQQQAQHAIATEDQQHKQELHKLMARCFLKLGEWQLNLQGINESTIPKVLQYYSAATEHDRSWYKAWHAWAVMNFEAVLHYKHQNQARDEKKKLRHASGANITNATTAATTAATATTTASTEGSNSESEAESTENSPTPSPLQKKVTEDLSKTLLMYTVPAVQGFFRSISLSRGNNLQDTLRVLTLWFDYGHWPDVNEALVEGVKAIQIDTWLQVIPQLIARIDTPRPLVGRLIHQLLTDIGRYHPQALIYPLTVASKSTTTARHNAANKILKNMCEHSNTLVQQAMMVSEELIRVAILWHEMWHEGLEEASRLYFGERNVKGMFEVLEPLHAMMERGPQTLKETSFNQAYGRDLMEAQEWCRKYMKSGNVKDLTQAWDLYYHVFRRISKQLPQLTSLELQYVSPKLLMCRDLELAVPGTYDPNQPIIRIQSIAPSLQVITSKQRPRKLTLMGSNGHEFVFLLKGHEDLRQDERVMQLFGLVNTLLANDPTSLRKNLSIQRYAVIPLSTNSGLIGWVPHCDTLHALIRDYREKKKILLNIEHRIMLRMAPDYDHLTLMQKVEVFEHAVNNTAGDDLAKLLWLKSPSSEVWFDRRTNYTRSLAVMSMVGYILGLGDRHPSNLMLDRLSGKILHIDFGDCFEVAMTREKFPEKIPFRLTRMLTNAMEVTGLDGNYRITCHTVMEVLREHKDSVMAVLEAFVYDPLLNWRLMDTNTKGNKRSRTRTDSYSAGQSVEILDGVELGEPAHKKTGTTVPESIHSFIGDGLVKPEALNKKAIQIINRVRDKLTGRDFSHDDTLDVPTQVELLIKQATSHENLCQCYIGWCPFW
Assay: mTOR kinase assay (TR-FRET, for comparative purposes)
Type: biochemical
Conditions: read-out: mTOR % inhibition @ 1 μM, 1 μM test compound, 40 μM ATP, mean values
Where a name gives a salt, the structure may show the parent alone.
Form field: inhibition at 1 µM (one value per entry).

Compound	inhibition at 1 µM
COc1cc(C)cc2cc(-c3cc(CNCC(N)=O)n4ncnc(N)c34)sc12 [Example 18]	39.1%
COc1cc(C)cc2cc(-c3cc(CN(C)CCC(N)=O)n4ncnc(N)c34)sc12 [Example 67]	48%
COc1cc(C)cc2cc(-c3cc(CNCCC4CCCN4C)n4ncnc(N)c34)sc12 (centres unmarked) [Example 65]	5.9%
COc1cc(C)cc2cc(-c3cc(COCCNC(C)C)n4ncnc(N)c34)sc12 [Example 115]	6.5%
COc1cc(C)cc2cc(-c3cc(CN4CC(O)C4)n4ncnc(N)c34)sc12 [Example 91]	17.7%
COc1cc(C)cc2cc(-c3cc(CN4CCNC(C(=O)O)C4)n4ncnc(N)c34)sc12 (centres unmarked) [Example 38]	11.2%
COc1cc(C)cc2cc(-c3cc(CNCCN4CCC(O)CC4)n4ncnc(N)c34)sc12 [Example 58]	12.6%
COc1cc(C)cc2cc(-c3cc(CN[C@H]4CCNC4=O)n4ncnc(N)c34)sc12 [Example 14]	30.6%
CNC1CCN(Cc2cc(-c3cc4cc(C)cc(OC)c4s3)c3c(N)ncnn23)C1 (centres unmarked) [Example 41]	25.9%
COc1cc(C)cc2cc(-c3cc(C(=O)N4CCNCC4)n4ncnc(N)c34)sc12 [Example 99, dihydrochloride]	9.9%
COc1cc(C)cc2cc(-c3cc(C(=O)N4CC[C@](C)(N)C4)n4ncnc(N)c34)sc12 [Example 97, dihydrochloride]	16.7%
COc1cc(C)cc2cc(-c3cc(CN(C)C4CCN(C)C4)n4ncnc(N)c34)sc12 (centres unmarked) [Example 46]	26.3%
COc1cc(C)cc2cc(-c3cc(COCCN)n4ncnc(N)c34)sc12 [Example 120]	14.8%
COc1cc(C)cc2cc(-c3cc(CNCC(C)(C)N4CCOCC4)n4ncnc(N)c34)sc12 [Example 75]	18.6%
COc1cc(C)cc2cc(-c3cc(CN4CCCNCC4)n4ncnc(N)c34)sc12 [Example 48]	16.9%
COc1cc(C)cc2cc(-c3cc(CN4CCNC(C)C4)n4ncnc(N)c34)sc12 (centres unmarked) [Example 51]	0.9%
CCN[C@H]1CCN(Cc2cc(-c3cc4cc(C)cc(OC)c4s3)c3c(N)ncnn23)C1 [Example 16]	26.7%
COc1cc(C)cc2cc(-c3cc(CNCC4CCN(C)CC4)n4ncnc(N)c34)sc12 [Example 61]	8.6%
COc1cc(C)cc2cc(-c3cc(CN4CCCN(C)CC4)n4ncnc(N)c34)sc12 [Example 89]	28.7%
COc1cc(C)cc2cc(-c3cc(CN4C[C@@H]5CCCN[C@@H]5C4)n4ncnc(N)c34)sc12 [Example 47]	29%
COc1cc(C)cc2cc(-c3cc(CN4CC[C@@H](N(C)C)C4)n4ncnc(N)c34)sc12 [Example 90]	22.7%
CCNC(=O)COCc1cc(-c2cc3cc(C)cc(OC)c3s2)c2c(N)ncnn12 [Example 114]	27.7%
COc1cc(C)cc2cc(-c3cc(CN4CCC(N5CCCC5)C4)n4ncnc(N)c34)sc12 (centres unmarked) [Example 60]	11.3%
